# System Tested: purified human HDAC6 (Homo sapiens, UniProt Q9UBN7)
# Construct: purchased BPS Bioscience 5006
# Sequence (Q9UBN7 1-1215): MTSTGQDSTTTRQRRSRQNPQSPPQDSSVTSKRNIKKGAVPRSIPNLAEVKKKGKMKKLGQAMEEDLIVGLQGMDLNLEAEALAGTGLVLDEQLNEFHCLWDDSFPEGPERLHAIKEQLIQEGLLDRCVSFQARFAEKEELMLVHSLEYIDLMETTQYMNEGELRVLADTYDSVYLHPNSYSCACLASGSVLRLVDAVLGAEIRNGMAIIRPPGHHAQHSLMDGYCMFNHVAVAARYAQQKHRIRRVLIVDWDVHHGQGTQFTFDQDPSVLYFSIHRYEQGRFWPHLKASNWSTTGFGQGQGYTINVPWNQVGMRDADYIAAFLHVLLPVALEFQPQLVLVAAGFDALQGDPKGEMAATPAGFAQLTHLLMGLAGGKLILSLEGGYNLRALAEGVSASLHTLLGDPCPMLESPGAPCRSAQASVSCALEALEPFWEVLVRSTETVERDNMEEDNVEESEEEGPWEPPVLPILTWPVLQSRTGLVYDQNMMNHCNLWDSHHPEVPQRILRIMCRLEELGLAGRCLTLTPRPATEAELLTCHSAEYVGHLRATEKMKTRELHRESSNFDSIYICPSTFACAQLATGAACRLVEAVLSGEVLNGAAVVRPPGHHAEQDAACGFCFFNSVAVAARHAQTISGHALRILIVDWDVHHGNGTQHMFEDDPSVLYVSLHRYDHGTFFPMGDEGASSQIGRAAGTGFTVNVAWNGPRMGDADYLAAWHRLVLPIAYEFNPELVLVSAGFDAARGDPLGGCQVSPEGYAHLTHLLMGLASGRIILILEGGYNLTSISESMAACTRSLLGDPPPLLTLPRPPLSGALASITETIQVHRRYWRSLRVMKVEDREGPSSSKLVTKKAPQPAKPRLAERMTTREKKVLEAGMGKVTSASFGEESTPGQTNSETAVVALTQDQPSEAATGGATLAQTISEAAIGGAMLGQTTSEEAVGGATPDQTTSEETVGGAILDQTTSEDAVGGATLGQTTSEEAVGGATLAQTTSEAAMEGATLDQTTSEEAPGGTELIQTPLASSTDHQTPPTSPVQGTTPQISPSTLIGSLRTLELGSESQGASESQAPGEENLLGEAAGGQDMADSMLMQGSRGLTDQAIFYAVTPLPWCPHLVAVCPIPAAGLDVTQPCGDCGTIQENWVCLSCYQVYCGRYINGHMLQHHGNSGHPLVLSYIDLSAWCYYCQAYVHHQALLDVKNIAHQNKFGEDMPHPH
# Assay Explanation: HDAC6 Enzyme Assay
# Format: biochemical
# Cond: HDAC6, 0.37 μM concentration; read-out: Percentage Inhibition (%)
# Method: To measure the inhibition of HDAC6 activity, purified human HDAC6 (BPS Bioscience; Cat. No. 5006) is incubated with substrate Ac-Arg-Gly-Lys(Ac)-AMC peptide (Bachem Biosciences; Cat. No. I-1925) for 1 hour at 30° C. in the presence of test compounds or vehicle DMSO control. […]
Experimental Endpoint: inhibition at 0.37 µM (%)

{"Cpd Smiles": "CCN1CCC(C)(C(=O)N2CCc3cc(C(=O)NO)ccc3C2)CC1", "inhibition at 0.37 µM [%]": 78.3}
{"Cpd Smiles": "CC(C)(C)OC(=O)N1CCC(C)(C(=O)N2CCc3cc(C(=O)NO)ccc3C2)CC1", "inhibition at 0.37 µM [%]": 88.8}
{"Cpd Smiles": "CC(C)(C)OC(=O)N1CCC(C)(C(=O)Nc2ccc(CN3CCc4cc(C(=O)NO)ccc4C3)cc2)CC1", "inhibition at 0.37 µM [%]": 61}
{"Cpd Smiles": "CC1(C(=O)N2CCc3cc(C(=O)NO)ccc3C2)CCNCC1", "inhibition at 0.37 µM [%]": 79.7}
{"Cpd Smiles": "CC1(C(=O)Nc2ccc(CN3CCc4cc(C(=O)NO)ccc4C3)cc2)CCNCC1", "inhibition at 0.37 µM [%]": 72.2}

(A) O=C(NO)c1ccc2c(c1)CCN(Cc1ccc(C3CCNCC3)cc1)C2
(B) CC(C)(C)OC(=O)N1CCC(c2ccc(CN3CCc4cc(C(=O)NO)ccc4C3)cc2)CC1
Hi team, can someone confirm which has the larger inhibition at 0.37 µM: A or B ? Thanks. # respond with the chosen item's label A
(A: 80.7%, B: 46.2%)

src = patent US8778931B2
